Hello, the source for this data is PubChem BioAssay (NCI), in case you need it.

Test system: CAKI-1 renal
Assay: NCI tumour cell line growth inhibition, 48 h; in the data active = GI50 below about 0.43 µM; inactive = the rest
Your reply should match one of these outcome classes. active, inactive

Some solved entries appear below for comparison.
Item smiles: C#CCn1cnc2cnc(Nc3cccc(NC(=O)CCl)c3)nc21
Class: inactive

Item smiles: [N-]=[N+]=NCCCn1c2c(c3cc4c(cc3c1=O)OCO4)C(=O)c1ccccc1-2
Class: inactive

Item smiles: COc1ccc(/C=C/C(=O)c2cc3c(N)c(C(=O)Nc4cccc(Cl)c4C)sc3nc2C)cc1
Class: active

Item smiles: CC(C)=[CH][Sb]([Br])([CH]=C(C)C)([CH]=C(C)C)[c]1ccccc1
Class: inactive

Item smiles: C[n+]1c(-c2ccccc2)c2cc(N)ccc2c2ccccc21
Class: inactive

State the result this test recorded for O=c1c2cc(F)ccc2sc2c(Nc3ccncc3)nc3ccccc3c12 .
inactive

State the result this test recorded for NC1CCCCC1N.Nc1c(N=Nc2ccc(-c3ccc(N=Nc4cc(S(=O)(=O)[O-])c5ccccc5c4N)cc3)cc2)cc(S(=O)(=O)[O-])c2ccccc12.[OH3+].[OH3+].[Pt+4] .
inactive

State the result this test recorded for NCCCCCCCCCCn1c2c(c3ccccc3c1=O)C(=O)c1ccccc1-2 .
inactive

State the result this test recorded for Nc1nonc1C(=Nc1ccc(F)c(Cl)c1)NO .
inactive

State the result this test recorded for COc1cc(/C=C/c2cc(/C=C/c3ccc(O)c(OC)c3)n(-c3c(Cl)cccc3Cl)c(=O)n2)ccc1O .
inactive

* * *

Tested on: NCI-H522 lung
Assay: NCI tumour cell line growth inhibition, 48 h
Below is a list of entries, each paired with its recorded TGI value.

Look over these answered cases.
Compound: [N-]=[N+]=NCCCn1c2c(c3cc4c(cc3c1=O)OCO4)C(=O)c1ccccc1-2
TGI: > 100 µM

Compound: COc1ccc(NC2=NCCO2)c2c1CCCC2
TGI: > 100 µM

Compound: ClC(Cl)(Cl)C(N1CCN(c2ccccc2)CC1)N1CCN(c2ccccc2)CC1
TGI: > 100 µM

Compound: CCOC(=O)C1C(=O)C=C(c2cc(C)ccc2O)CC1c1cccc(Cl)c1 (stereo not drawn)
TGI: 37 µM

Compound: O=C(NN1C(=O)C(Cl)C1c1ccc(O)cc1)c1ccccc1O (stereo not drawn)
TGI: 34.5 µM

Compound: CCOC(=O)C1C(O)CC2c3ccccc3-c3ccccc3C21 (stereo not drawn)
TGI: > 100 µM

Input CNCCCCN(C)/[N+]([O-])=N\O . Output TGI: > 100 µM

Input Cn1ncc(NC(=O)c2nc(-c3c(F)cccc3F)sc2N)c1N1CC[C@@H](N)[C@H](F)CC1 . Output TGI: 14.9 µM

Input CNC(=O)NCC1OC(n2cnc3c(NC(=O)Nc4ccccc4)ncnc32)C(O[Si](C)(C)C(C)(C)C)C1CC(=O)N(C)OC (stereo not drawn) . Output TGI: > 100 µM

* * *

Below is a list of entries, each paired with its recorded TGI value.
Tested on: OVCAR-3 ovarian
Assay: NCI tumour cell line growth inhibition, 48 h

Look over these answered cases.
Molecule: O=C(c1ccccc1)N1CCN2CCN=C(c3ccccc3)C21c1ccccc1 (configuration not stated)
TGI: > 100 µM
//
Molecule: N#Cc1c(-c2ccccc2)cc(-c2ccccc2)n(CCCC(=O)NO)c1=O
TGI: 4.6 µM
//
Molecule: Cc1c2c(cc3c1[nH]c1ccccc13)C(c1ccc(Cl)cc1)=NCC2
TGI: 1.78 µM

Now, please, on to the next molecule.
Input COc1ccc(/C=C2\Oc3cc(OC(C)=O)ccc3C2=O)cc1 . Output TGI: > 100 µM
